All figures here come from patent US10144732B2.

Listing of recorded IC50 by entry.
biological target: Human ATX protein (Homo sapiens, UniProt Q13822); construct: made in house; experiment: ATX biochemical assay (FRET, FS-3 substrate); settings: FRET assay, FS-3 2 μM, ATX 1.0 μg/mL, 30 minutes preincubation, 2 hours reaction at room temperature; read-out: IC50
Structures can show the parent of a compound that is named as a salt.

Consider the reported IC50 for these compounds:
>>> readout_value("CN(C)c1nn(Cc2ccc(F)cc2)c2c1CCN(C(=O)C[C@H]1CC[C@H](C(=O)O)CC1)C2 [Example 5-43]")
"≤ 100 nM"
>>> readout_value("CCOC(=O)C1CCCN(CC(=O)N2CCc3c(C(F)(F)F)nn(Cc4ccc(Cl)cc4F)c3C2)C1 (centres unmarked) [Example 12-3]")
"≤ 100 nM"
>>> readout_value("O=C(O)C1CCCN(CC(=O)N2CCc3c(C(F)(F)F)nn(Cc4ccc(F)cc4)c3C2)CC1 (centres unmarked) [Example 13-19, TFA salt]")
"≤ 100 nM"
>>> readout_value("O=C(O)C1CCN(CC(=O)N2CCc3c(C(F)(F)F)nn(Cc4ccc(Cl)cc4F)c3C2)CC1 [Example 13-2]")
"≤ 100 nM"

Turning now to a further compound:
### Prompt Determine from records and report IC50 for COC(=O)[C@H]1CC[C@H](N(C)C(=O)N2CCc3c(C(F)(F)F)nn(Cc4ccc(Cl)cc4F)c3C2)CC1 [Example 3-4]
### Response 100 to 250 nM
